I'd be grateful if you could share measured residual activity for these entries.
Molecular target: UniProt:Q9Y6M4
Sequence (Q9Y6M4 whole entry, looked up): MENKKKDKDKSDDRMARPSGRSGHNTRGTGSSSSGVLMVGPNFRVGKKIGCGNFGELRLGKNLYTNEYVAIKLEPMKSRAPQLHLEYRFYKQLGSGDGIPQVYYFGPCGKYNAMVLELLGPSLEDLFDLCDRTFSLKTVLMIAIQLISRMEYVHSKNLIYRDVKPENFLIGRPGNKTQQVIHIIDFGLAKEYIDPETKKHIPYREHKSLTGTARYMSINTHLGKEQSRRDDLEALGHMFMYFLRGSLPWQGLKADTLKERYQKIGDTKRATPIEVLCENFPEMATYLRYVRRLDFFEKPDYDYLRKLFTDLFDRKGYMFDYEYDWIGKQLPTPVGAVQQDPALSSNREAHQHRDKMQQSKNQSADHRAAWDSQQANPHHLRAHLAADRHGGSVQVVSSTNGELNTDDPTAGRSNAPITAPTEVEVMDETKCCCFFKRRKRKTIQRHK
Assay: radiometric filter-binding kinase assay, Kinase HotSpot
Conditions: compound 0.5 µM; ATP 10 µM
Hi, when you answer, please include the unit after the number. Thanks!

[[record]]
structure_as_smiles = "O=C(Nc1cccc(Nc2nccc(Nc3cccc(C(F)(F)F)c3)n2)c1)C1CC1"
outcome_measure = "residual activity"
obs_value = "93.5%"

[[record]]
structure_as_smiles = "CCC(=O)Nc1ccc2ncnc(Nc3cccc(Br)c3)c2c1"
outcome_measure = "residual activity"
obs_value = "91.6%"


Form field: reported residual activity of Cc1ccc(S(=O)(=O)/C=C/C#N)cc1
88.3%

----------
Molecular target: PTK2B (human) (UniProt Q14289)
Sequence (Q14289 whole entry, looked up): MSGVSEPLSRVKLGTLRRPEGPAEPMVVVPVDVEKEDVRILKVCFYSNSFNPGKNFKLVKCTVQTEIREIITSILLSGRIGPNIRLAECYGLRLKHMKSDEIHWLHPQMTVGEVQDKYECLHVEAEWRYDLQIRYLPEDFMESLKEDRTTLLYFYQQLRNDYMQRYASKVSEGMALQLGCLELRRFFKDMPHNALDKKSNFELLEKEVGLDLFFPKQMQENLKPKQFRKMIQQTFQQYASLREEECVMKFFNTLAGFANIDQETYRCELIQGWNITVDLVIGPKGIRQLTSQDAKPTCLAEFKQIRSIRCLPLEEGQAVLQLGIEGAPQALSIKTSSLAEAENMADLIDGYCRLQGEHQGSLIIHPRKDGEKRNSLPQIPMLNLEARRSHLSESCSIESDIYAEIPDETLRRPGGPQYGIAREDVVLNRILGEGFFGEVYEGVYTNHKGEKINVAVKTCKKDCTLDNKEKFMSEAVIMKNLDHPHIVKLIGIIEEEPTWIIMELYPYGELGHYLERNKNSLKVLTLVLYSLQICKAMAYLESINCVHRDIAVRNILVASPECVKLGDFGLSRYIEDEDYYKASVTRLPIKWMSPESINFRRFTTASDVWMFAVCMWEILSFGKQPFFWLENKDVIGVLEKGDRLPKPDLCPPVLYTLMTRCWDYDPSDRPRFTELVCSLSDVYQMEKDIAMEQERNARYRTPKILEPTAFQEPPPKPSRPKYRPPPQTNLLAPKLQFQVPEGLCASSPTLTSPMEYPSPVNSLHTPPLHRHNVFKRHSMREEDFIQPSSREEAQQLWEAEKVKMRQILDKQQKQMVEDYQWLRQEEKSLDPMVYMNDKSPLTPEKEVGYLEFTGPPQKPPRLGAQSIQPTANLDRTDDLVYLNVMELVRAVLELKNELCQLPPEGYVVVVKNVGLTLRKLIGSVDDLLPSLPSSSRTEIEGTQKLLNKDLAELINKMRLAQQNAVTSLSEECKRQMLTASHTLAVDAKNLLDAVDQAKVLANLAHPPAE
Assay: radiometric filter-binding kinase assay, Kinase HotSpot
Conditions: compound 0.5 µM; ATP 10 µM
// returns false unless residual activity is strictly below 90%, in which case true

[[record]]
structure_as_smiles = "Cc1[nH]c(/C=C2\\C(=O)Nc3ccc(S(=O)(=O)N(C)c4cccc(Cl)c4)cc32)c(C)c1C(=O)N1CCN(C)CC1"
assigned_class = "true"

[[record]]
structure_as_smiles = "Oc1cccc(-c2nc(N3CCOCC3)c3oc4ncccc4c3n2)c1"
assigned_class = "false"


Could you now look at the following compound, please?
Below 90% on residual activity? Entry CNc1cc2c(Nc3cccc(Br)c3)ncnc2cn1
false

----------
Kindly supply the reported residual activity values for the records listed here.
Biological target: STK4 (human) (UniProt Q13043)
Sequence (Q13043 whole entry, looked up): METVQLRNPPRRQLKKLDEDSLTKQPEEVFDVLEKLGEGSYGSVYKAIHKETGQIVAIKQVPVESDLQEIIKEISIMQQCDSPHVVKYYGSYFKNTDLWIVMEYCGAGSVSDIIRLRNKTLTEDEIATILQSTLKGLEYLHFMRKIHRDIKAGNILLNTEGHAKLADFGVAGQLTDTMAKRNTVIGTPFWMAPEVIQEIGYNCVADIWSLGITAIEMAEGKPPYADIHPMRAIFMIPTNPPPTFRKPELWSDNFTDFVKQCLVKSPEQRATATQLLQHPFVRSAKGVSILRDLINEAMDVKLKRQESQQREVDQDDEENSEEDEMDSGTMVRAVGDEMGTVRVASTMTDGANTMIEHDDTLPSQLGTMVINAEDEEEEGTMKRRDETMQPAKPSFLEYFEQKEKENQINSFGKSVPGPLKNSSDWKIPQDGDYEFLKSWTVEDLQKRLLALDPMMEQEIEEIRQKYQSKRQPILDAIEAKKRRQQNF
Assay: radiometric filter-binding kinase assay, Kinase HotSpot
Conditions: compound 0.5 µM; ATP 10 µM
Answers are plain numbers, in %.

Worked set:
[[record]]
structure_as_smiles = "Oc1cccc(-c2nc(N3CCOCC3)c3oc4ncccc4c3n2)c1"
tested_on = "STK4 (human) (UniProt Q13043)"
obs_value = 93.3

[[record]]
structure_as_smiles = "Cc1[nH]c(/C=C2\\C(=O)Nc3ccc(S(=O)(=O)N(C)c4cccc(Cl)c4)cc32)c(C)c1C(=O)N1CCN(C)CC1"
tested_on = "STK4 (human) (UniProt Q13043)"
obs_value = 49.1

[[record]]
structure_as_smiles = "O=C(Nc1cccc(Nc2nccc(Nc3cccc(C(F)(F)F)c3)n2)c1)C1CC1"
tested_on = "STK4 (human) (UniProt Q13043)"
obs_value = 83.1

[[record]]
structure_as_smiles = "O=C1NC(=O)C(c2cn(CCCn3ccnc3)c3ccccc23)=C1Nc1ccccc1"
tested_on = "STK4 (human) (UniProt Q13043)"
obs_value = 40.9

[[record]]
structure_as_smiles = "N#CC(C#N)=C(N)/C(C#N)=C/c1ccc(O)cc1"
tested_on = "STK4 (human) (UniProt Q13043)"
obs_value = 99.1

[[record]]
structure_as_smiles = "COc1ccc2c(c[n+](C)c3c4cc5c(cc4ccc23)OCO5)c1OC"
tested_on = "STK4 (human) (UniProt Q13043)"
obs_value = 98.9

[[record]]
structure_as_smiles = "CCCC(=O)Oc1ccc2[nH]c(C(=O)c3cc4ccccc4[nH]3)cc2c1"
tested_on = "STK4 (human) (UniProt Q13043)"
obs_value = 96.8

[[record]]
structure_as_smiles = "N#C/C(=C(/N)Sc1ccc(N)cc1)c1ccccc1C(F)(F)F"
tested_on = "STK4 (human) (UniProt Q13043)"
obs_value = 89.7

[[record]]
structure_as_smiles = "Cc1ccc(S(=O)(=O)/C=C/C#N)cc1"
tested_on = "STK4 (human) (UniProt Q13043)"
obs_value = 94.7

[[record]]
structure_as_smiles = "CNC(=O)c1cc(Oc2ccc(NC(=O)Nc3ccc(Cl)c(C(F)(F)F)c3)cc2)ccn1"
tested_on = "STK4 (human) (UniProt Q13043)"
obs_value = 101


Record residual activity per entry; entries follow.
1. Nc1ccc2ncnc(NCCc3ccc(Oc4ccccc4)cc3)c2c1
2. Nc1cccc(-c2cc3c(Oc4cccc(O)c4)ncnc3[nH]2)c1
3. Cc1ccc(NC2=CC(=O)c3sc(C)nc3C2=O)cc1
4. COc1ccc(COc2ccc(Cc3cnc(N)nc3N)cc2OC)cc1
5. c1ccc(-c2n[nH]c3c2oc2ccccc23)cc1

95.8
94.4
93.5
106
99.8
